Biological target: UniProt P41145
Sequence (P41145 whole entry): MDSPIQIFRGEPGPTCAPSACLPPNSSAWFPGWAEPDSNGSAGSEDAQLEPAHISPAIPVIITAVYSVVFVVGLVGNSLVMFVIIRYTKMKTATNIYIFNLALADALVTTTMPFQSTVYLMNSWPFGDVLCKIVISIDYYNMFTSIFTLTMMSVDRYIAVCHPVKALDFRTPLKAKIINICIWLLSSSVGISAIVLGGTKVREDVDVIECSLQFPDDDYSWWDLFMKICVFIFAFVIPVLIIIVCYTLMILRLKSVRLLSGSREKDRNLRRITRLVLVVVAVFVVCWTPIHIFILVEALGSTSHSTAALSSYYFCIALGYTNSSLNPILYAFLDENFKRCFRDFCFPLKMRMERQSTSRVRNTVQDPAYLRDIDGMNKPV
Assay: Displacement of [3H]U69593 from kappa opioid receptor expressed in HEK293 cells relative to salvinorin A
Assay type: cell-based
Parameters: concentration or dose not given beside the values
value_kind: Activity (%)

INSERT INTO assay_data (molecule, value_kind, recorded_value) VALUES
  ('COC(=O)[C@@H]1C[C@H](OC(=O)[C@H](C)N)C(=O)[C@H]2[C@@]1(C)CC[C@H]1C(=O)O[C@H](c3ccoc3)C[C@]21C', 'Activity', 82),
  ('COC(=O)[C@@H]1C[C@H](OC(=O)CCCN)C(=O)[C@H]2[C@@]1(C)CC[C@H]1C(=O)O[C@H](c3ccoc3)C[C@]21C', 'Activity', 48),
  ('COC(=O)[C@@H]1C[C@H](OC(=O)[C@@H](N)[C@H](C)OC(C)(C)C)C(=O)[C@H]2[C@@]1(C)CC[C@H]1C(=O)O[C@H](c3ccoc3)C[C@]21C', 'Activity', 6);

====

Target: UniProt P35372
Sequence (P35372 whole entry): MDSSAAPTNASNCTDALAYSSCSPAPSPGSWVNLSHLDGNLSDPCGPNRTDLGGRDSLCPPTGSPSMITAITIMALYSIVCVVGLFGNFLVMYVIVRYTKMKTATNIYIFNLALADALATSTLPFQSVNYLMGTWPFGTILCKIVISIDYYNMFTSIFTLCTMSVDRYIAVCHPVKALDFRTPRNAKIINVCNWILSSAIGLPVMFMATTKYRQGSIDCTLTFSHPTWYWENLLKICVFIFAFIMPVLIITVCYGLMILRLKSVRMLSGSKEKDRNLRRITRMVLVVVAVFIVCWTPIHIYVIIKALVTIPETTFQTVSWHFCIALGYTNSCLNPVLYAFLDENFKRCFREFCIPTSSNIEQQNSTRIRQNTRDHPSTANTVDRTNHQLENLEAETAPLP
Assay: Displacement of [3H]DAMGO from mu opioid receptor expressed in HEK293 cells relative to DAMGO
Format: cell-based
Set-up: concentration or dose not given beside the values
The entries below are paired with their reported Activity.
value_kind: Activity (%)

INSERT INTO assay_data (molecule, endpoint_unit, recorded_value) VALUES
  ('COC(=O)[C@@H]1C[C@H](OC(=O)[C@@H](NC(=O)OCC2c3ccccc3-c3ccccc32)[C@H](C)OC(C)(C)C)C(=O)[C@H]2[C@@]1(C)CC[C@H]1C(=O)O[C@H](c3ccoc3)C[C@]21C', '%', 18),
  ('COC(=O)[C@@H]1C[C@H](OC(=O)[C@@H](N)C(C)C)C(=O)[C@H]2[C@@]1(C)CC[C@H]1C(=O)O[C@H](c3ccoc3)C[C@]21C', '%', 5),
  ('COC(=O)[C@@H]1C[C@H](OC(=O)CNC(=O)OCC2c3ccccc3-c3ccccc32)C(=O)[C@H]2[C@@]1(C)CC[C@H]1C(=O)O[C@H](c3ccoc3)C[C@]21C', '%', 20),
  ('COC(=O)[C@@H]1C[C@H](OC(=O)[C@@H](NC(=O)OCC2c3ccccc3-c3ccccc32)C(C)C)C(=O)[C@H]2[C@@]1(C)CC[C@H]1C(=O)O[C@H](c3ccoc3)C[C@]21C', '%', 15),
  ('COC(=O)[C@@H]1C[C@H](OC(=O)[C@@H](N)Cc2ccccc2)C(=O)[C@H]2[C@@]1(C)CC[C@H]1C(=O)O[C@H](c3ccoc3)C[C@]21C', '%', -6),
  ('COC(=O)[C@@H]1C[C@H](OC(=O)[C@@H](N)[C@H](C)OC(C)(C)C)C(=O)[C@H]2[C@@]1(C)CC[C@H]1C(=O)O[C@H](c3ccoc3)C[C@]21C', '%', 2);

====

Target: UniProt:P35372
Test: Displacement of [3H]DAMGO from mu opioid receptor expressed in HEK293 cells relative to DAMGO
Format: cell-based
Parameters: concentration or dose not given beside the values
value_kind: Activity (%)

INSERT INTO measurements (molecule, measured_target, endpoint_unit, recorded_value) VALUES
  ('COC(=O)[C@@H]1C[C@H](OC(=O)[C@H](C)NC(=O)OCC2c3ccccc3-c3ccccc32)C(=O)[C@H]2[C@@]1(C)CC[C@H]1C(=O)O[C@H](c3ccoc3)C[C@]21C', 'UniProt:P35372', '%', 24),
  ('COC(=O)[C@@H]1C[C@H](OC(=O)CCCN)C(=O)[C@H]2[C@@]1(C)CC[C@H]1C(=O)O[C@H](c3ccoc3)C[C@]21C', 'UniProt:P35372', '%', 1),
  ('COC(=O)[C@@H]1C[C@H](OC(=O)[C@H](Cc2ccccc2)NC(=O)OCC2c3ccccc3-c3ccccc32)C(=O)[C@H]2[C@@]1(C)CC[C@H]1C(=O)O[C@H](c3ccoc3)C[C@]21C', 'UniProt:P35372', '%', 0.5),
  ('COC(=O)[C@@H]1C[C@H](OC(=O)CN)C(=O)[C@H]2[C@@]1(C)CC[C@H]1C(=O)O[C@H](c3ccoc3)C[C@]21C', 'UniProt:P35372', '%', -5),
  ('COC(=O)[C@@H]1C[C@H](OC(=O)[C@H](C)N)C(=O)[C@H]2[C@@]1(C)CC[C@H]1C(=O)O[C@H](c3ccoc3)C[C@]21C', 'UniProt:P35372', '%', -1.6),
  ('COC(=O)[C@@H]1C[C@H](OC(=O)CCCNC(=O)OCC2c3ccccc3-c3ccccc32)C(=O)[C@H]2[C@@]1(C)CC[C@H]1C(=O)O[C@H](c3ccoc3)C[C@]21C', 'UniProt:P35372', '%', 27);

====

Target: Delta-type opioid receptor (Homo sapiens)
Sequence (P41143 whole entry): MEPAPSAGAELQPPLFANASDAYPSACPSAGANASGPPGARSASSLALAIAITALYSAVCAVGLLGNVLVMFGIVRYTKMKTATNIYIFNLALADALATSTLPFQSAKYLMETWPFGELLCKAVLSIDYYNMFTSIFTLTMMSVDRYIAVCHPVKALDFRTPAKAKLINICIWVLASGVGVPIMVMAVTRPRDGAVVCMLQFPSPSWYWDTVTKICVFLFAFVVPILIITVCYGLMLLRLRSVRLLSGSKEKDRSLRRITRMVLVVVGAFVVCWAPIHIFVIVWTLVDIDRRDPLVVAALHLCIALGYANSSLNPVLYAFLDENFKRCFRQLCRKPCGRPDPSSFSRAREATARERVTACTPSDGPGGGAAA
Assay: Displacement of [3H]DADLE from delta opioid receptor expressed in HEK293 cells
value_kind: Ki

INSERT INTO measurements (molecule, recorded_value) VALUES
  ('COC(=O)[C@@H]1C[C@H](OC(=O)[C@H](C)N)C(=O)[C@H]2[C@@]1(C)CC[C@H]1C(=O)O[C@H](c3ccoc3)C[C@]21C', '> 10 µM'),
  ('COC(=O)[C@@H]1C[C@H](OC(=O)[C@@H](N)C(C)C)C(=O)[C@H]2[C@@]1(C)CC[C@H]1C(=O)O[C@H](c3ccoc3)C[C@]21C', '> 10 µM');

====

Target: Delta-type opioid receptor (Homo sapiens)
Assay: Displacement of [3H]DADLE from delta opioid receptor expressed in HEK293 cells relative to DADLE
Format: cell-based
Set-up: concentration or dose not given beside the values
The entries below are paired with their reported Activity.
value_kind: Activity (%)

INSERT INTO measurements (molecule, recorded_value) VALUES
  ('COC(=O)[C@@H]1C[C@H](OC(=O)[C@@H](N)C(C)C)C(=O)[C@H]2[C@@]1(C)CC[C@H]1C(=O)O[C@H](c3ccoc3)C[C@]21C', 48),
  ('COC(=O)[C@@H]1C[C@H](OC(=O)[C@@H](NC(=O)OCC2c3ccccc3-c3ccccc32)[C@H](C)OC(C)(C)C)C(=O)[C@H]2[C@@]1(C)CC[C@H]1C(=O)O[C@H](c3ccoc3)C[C@]21C', 8),
  ('COC(=O)[C@@H]1C[C@H](OC(=O)[C@@H](N)[C@H](C)OC(C)(C)C)C(=O)[C@H]2[C@@]1(C)CC[C@H]1C(=O)O[C@H](c3ccoc3)C[C@]21C', 11),
  ('COC(=O)[C@@H]1C[C@H](OC(=O)[C@H](C)NC(=O)OCC2c3ccccc3-c3ccccc32)C(=O)[C@H]2[C@@]1(C)CC[C@H]1C(=O)O[C@H](c3ccoc3)C[C@]21C', 15),
  ('Oc1ccc2c3c1O[C@H]1c4[nH]c5ccccc5c4C[C@@]4(O)[C@@H](C2)N(CC2CC2)CC[C@]314', 100),
  ('COC(=O)[C@@H]1C[C@H](OC(=O)CCCN)C(=O)[C@H]2[C@@]1(C)CC[C@H]1C(=O)O[C@H](c3ccoc3)C[C@]21C', 28),
  ('COC(=O)[C@@H]1C[C@H](OC(=O)[C@H](C)N)C(=O)[C@H]2[C@@]1(C)CC[C@H]1C(=O)O[C@H](c3ccoc3)C[C@]21C', 18),
  ('COC(=O)[C@@H]1C[C@H](OC(=O)CNC(=O)OCC2c3ccccc3-c3ccccc32)C(=O)[C@H]2[C@@]1(C)CC[C@H]1C(=O)O[C@H](c3ccoc3)C[C@]21C', 16),
  ('COC(=O)[C@@H]1C[C@H](OC(=O)[C@H](Cc2ccccc2)NC(=O)OCC2c3ccccc3-c3ccccc32)C(=O)[C@H]2[C@@]1(C)CC[C@H]1C(=O)O[C@H](c3ccoc3)C[C@]21C', 3),
  ('COC(=O)[C@@H]1C[C@H](OC(=O)[C@@H](N)Cc2ccccc2)C(=O)[C@H]2[C@@]1(C)CC[C@H]1C(=O)O[C@H](c3ccoc3)C[C@]21C', 13),
  ('COC(=O)[C@@H]1C[C@H](OC(=O)CCCNC(=O)OCC2c3ccccc3-c3ccccc32)C(=O)[C@H]2[C@@]1(C)CC[C@H]1C(=O)O[C@H](c3ccoc3)C[C@]21C', 24),
  ('COC(=O)[C@@H]1C[C@H](OC(=O)[C@@H](NC(=O)OCC2c3ccccc3-c3ccccc32)C(C)C)C(=O)[C@H]2[C@@]1(C)CC[C@H]1C(=O)O[C@H](c3ccoc3)C[C@]21C', 22),
  ('COC(=O)[C@@H]1C[C@H](OC(=O)CN)C(=O)[C@H]2[C@@]1(C)CC[C@H]1C(=O)O[C@H](c3ccoc3)C[C@]21C', 17);
